# Tested on: German cockroaches (Blatella Germanica)
# EXPERIMENT_SUMMARY: Cockroach repellency screening on partially treated formica surface (Example 2)
# Assay type: in vivo
# CONDITIONS: cockroaches; 20 mg/m^2 on formica; average of days 1, 2 and 3
Record form. Attribute: Percentage Present, Treated Section, Average. Fill in for each entry.
# number only, unit % dropped from output

Exercise: Record request: Percentage Present, Treated Section, Average value, item CCCNC(=O)C1CC(C)CCC1C(C)C (stereo not drawn) [Compound 3, N-propyl-p-menthane-3-carboxamide]
Solution: 9.6

Exercise: Record request: Percentage Present, Treated Section, Average value, item CNC(=O)C1CC(C)CCC1C(C)C (stereo not drawn) [Compound 1, N-methyl-p-menthane-3-carboxamide]
Solution: 16.3

Exercise: Record request: Percentage Present, Treated Section, Average value, item CCNC(=O)C1CC(C)CCC1C(C)C (stereo not drawn) [Compound 2, N-ethyl-p-menthane-3-carboxamide]
Solution: 15.9

Exercise: Record request: Percentage Present, Treated Section, Average value, item CC1CCC(C(C)C)C(C(=O)Nc2ccccc2)C1 (stereo not drawn) [Compound 4, N-phenyl-p-menthane-3-carboxamide]
Solution: 31.3

Exercise: Record request: Percentage Present, Treated Section, Average value, item CC1CCC(C(C)C)C(C(=O)N(C)C)C1 (stereo not drawn) [Compound 5, N,N-dimethyl-p-menthane-3-carboxamide]
Solution: 13.3

Exercise: Record request: Percentage Present, Treated Section, Average value, item CCN(CC)C(=O)C1CC(C)CCC1C(C)C (stereo not drawn) [Compound 6, N,N-diethyl-p-menthane-3-carboxamide]
Solution: 10.5

* * *

# Test system: German cockroaches (Blatella Germanica)
# EXPERIMENT_SUMMARY: Cockroach repellency screening on partially treated formica surface (Example 2)
# Format: in vivo
# CONDITIONS: cockroaches; 20 mg/m^2 on formica; 2 days after treatment
Label 1 (yes) when Percentage Present, Untreated Section is at or above 80%; anything below gets 0 (no).

Exercise: Entry CCNC(=O)C1CC(C)CCC1C(C)C (stereo not drawn) [Compound 2, N-ethyl-p-menthane-3-carboxamide] : is its Percentage Present, Untreated Section no less than 80%?
Solution: 1 (yes)

Exercise: Entry CC1CCC(C(C)C)C(C(=O)Nc2ccccc2)C1 (stereo not drawn) [Compound 4, N-phenyl-p-menthane-3-carboxamide] : is its Percentage Present, Untreated Section no less than 80%?
Solution: 0 (no)

Exercise: Entry CCN(CC)C(=O)C1CC(C)CCC1C(C)C (stereo not drawn) [Compound 6, N,N-diethyl-p-menthane-3-carboxamide] : is its Percentage Present, Untreated Section no less than 80%?
Solution: 1 (yes)

Exercise: Entry CNC(=O)C1CC(C)CCC1C(C)C (stereo not drawn) [Compound 1, N-methyl-p-menthane-3-carboxamide] : is its Percentage Present, Untreated Section no less than 80%?
Solution: 1 (yes)

Exercise: Entry CC1CCC(C(C)C)C(C(=O)N(C)C)C1 (stereo not drawn) [Compound 5, N,N-dimethyl-p-menthane-3-carboxamide] : is its Percentage Present, Untreated Section no less than 80%?
Solution: 1 (yes)

Exercise: Entry CCCNC(=O)C1CC(C)CCC1C(C)C (stereo not drawn) [Compound 3, N-propyl-p-menthane-3-carboxamide] : is its Percentage Present, Untreated Section no less than 80%?
Solution: 1 (yes)

* * *

# Test system: German cockroaches (Blatella Germanica)
# EXPERIMENT_SUMMARY: Cockroach repellency screening on partially treated formica surface (Example 2)
# Assay type: in vivo
# CONDITIONS: cockroaches; 20 mg/m^2 on formica; 2 days after treatment
READOUT_TYPE: Percentage Present, Treated Section (%)
# number only, unit % dropped from output

Exercise: Record request: Percentage Present, Treated Section value, item CCN(CC)C(=O)C1CC(C)CCC1C(C)C (stereo not drawn) [Compound 6, N,N-diethyl-p-menthane-3-carboxamide]
Solution: 13.8

Exercise: Record request: Percentage Present, Treated Section value, item CNC(=O)C1CC(C)CCC1C(C)C (stereo not drawn) [Compound 1, N-methyl-p-menthane-3-carboxamide]
Solution: 16.3

Exercise: Record request: Percentage Present, Treated Section value, item CC1CCC(C(C)C)C(C(=O)N(C)C)C1 (stereo not drawn) [Compound 5, N,N-dimethyl-p-menthane-3-carboxamide]
Solution: 10.0

Exercise: Record request: Percentage Present, Treated Section value, item CCCNC(=O)C1CC(C)CCC1C(C)C (stereo not drawn) [Compound 3, N-propyl-p-menthane-3-carboxamide]
Solution: 6.3

Exercise: Record request: Percentage Present, Treated Section value, item CC1CCC(C(C)C)C(C(=O)Nc2ccccc2)C1 (stereo not drawn) [Compound 4, N-phenyl-p-menthane-3-carboxamide]
Solution: 35.0

Exercise: Record request: Percentage Present, Treated Section value, item CCNC(=O)C1CC(C)CCC1C(C)C (stereo not drawn) [Compound 2, N-ethyl-p-menthane-3-carboxamide]
Solution: 16.3
